- experimental-details: ASC/caspase-1 reporter retest in S. cerevisiae at one dose, specificity check for NALP1 project (AID 488857)
- measurement-context: S. cerevisiae ASC/Caspase-1, beta-galactosidase luminescence, 24 h; at 10 µM
The campaign covered roughly 1,400 compounds. About 560 (40%) were called active.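 Rule for the calls: active = mean inhibition over duplicate tests at 10 µM above 50%; inactive = the rest.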 The set was probably picked from earlier hits. Some of the results follow.
Log the outcome using a class from active, inactive

As a guide, the following entries are already answered.
compound	class-label
CC1=C/C(=N\OS(=O)(=O)c2ccccc2)C(C(C)C)=CC1=O	active
Cc1nc2nc3c(cn2n1)C(=O)CCC3	inactive
CCCCCCCCCCCCCCCC[n+]1ccc(C(N)=O)cc1	active
COc1ccc(Nc2cc(C)c3ccc(O)cc3n2)cc1	active
O=S(=O)(Nc1ccc(-n2cccc2)cc1)c1ccc(Cl)cc1Cl	inactive

Proceed to the following item.
Could you please tell me the result logged for `CCOc1ccc(OCCCCn2ccnc2)cc1` in this assay?
active

###

- experimental-details: ASC/caspase-1 reporter retest in S. cerevisiae at one dose, specificity check for NALP1 project (AID 488857)
- measurement-context: S. cerevisiae ASC/Caspase-1, beta-galactosidase luminescence, 24 h; at 10 µM; stronger effect = higher value
In all, about 1,400 compounds went through this assay and about 560 (40%) were called active. The set was probably picked from earlier hits. The list shows a part of the results.
Some compounds, each annotated with its measured inhibition.
Express your answer in %, writing the number without its unit.

Guide cases for inhibition, answers given:
compound	assay-result
CCOCCCNCc1ccc(OCc2ccccc2Cl)cc1	45.9
O=C(N/N=C/c1cc2c3c(c1O)CCCN3CCC2)c1ccccc1O	34.8
O=C(N/N=C/c1ccc2nccnc2c1)c1ccccc1O	36
Cc1cc(C(C)(C)C)cc(S(=O)(=O)Nc2ccc(O)c(C(=O)O)c2)c1C	27.8
CCOC(=O)c1cccnc1SCC(=O)NCc1ccccc1	54.2

Input `CCC(C)(C)NCC(=O)Nc1ccc(OC(F)(F)F)cc1` . Output inhibition: 27.4

Input `COc1ccc(CNCCSc2nnnn2C)cc1OC` . Output inhibition: 40.2

Input `O=C(Nc1ccc(-c2nc3ccccc3s2)cc1)C1=COCCO1` . Output inhibition: 55.6

###

- experimental-details: ASC/caspase-1 reporter retest in S. cerevisiae at one dose, specificity check for NALP1 project (AID 488857)
- measurement-context: S. cerevisiae ASC/Caspase-1, beta-galactosidase luminescence, 24 h; at 10 µM; stronger effect = higher value
Screen size: about 1,400 compounds; about 560 (40%) were called active. The set was probably picked from earlier hits. The list shows a part of the results.
Some molecules, each annotated with its measured inhibition.
Express your answer in %, writing the number without its unit.

Guide cases for inhibition, answers given:
molecule	inhibition (%)
Cc1csc(NC(=O)CCc2ccc(S(=O)(=O)N3CCOCC3)cc2)n1	40.8
CCCOc1ccc(C(=O)c2nc3c(n2O)CCCCC3)cc1	52
CN(C)c1ccc(N/C=C/C(=O)c2ccccc2)cc1	62.9
CC(C)CC(=O)/C(=C\c1ccc(Cl)cc1Cl)n1cncn1	101
C1CCC(C(CC2CCCCN2)C2CCCCC2)CC1 (configuration not stated)	39.9

Input CSc1ccc(C(=O)C2CCCN(C(=O)c3ccc4c(c3)no[n+]4[O-])C2)cc1 (configuration not stated) . Output inhibition: 19.9

Input `O=C(CSc1nnnn1C1CCCCC1)N1c2ccccc2Sc2ccccc21` . Output inhibition: 39.5

Input `O=C(NCCN1C(=O)S/C(=C\c2cccnc2)C1=O)c1cccc(OC(F)F)c1` . Output inhibition: 45.1

Input `CC(/C=N/NC(=O)CSc1ccccn1)=C\c1ccc(C(C)C)cc1` . Output inhibition: 39

Input `CCCc1[nH]n(-c2nc3ccccc3s2)c(=O)c1C=NCC(C)C` . Output inhibition: 78

Input `COc1ccc2c(c1)O/C(=C\c1sccc1C)C2=O` . Output inhibition: 66.5

Input `Oc1c(Br)cc(Br)cc1C=Nc1ccc2c(c1)OCO2` . Output inhibition: 64.6

Input `O=C(NC(=S)NCCCN1CCOCC1)c1ccc([N+](=O)[O-])cc1` . Output inhibition: 37

Input `Cc1cccc(N/C=C/C(=C(C#N)C#N)N(C)C)c1` . Output inhibition: 38.1

Input `CSc1ccc(S(=O)(=O)NCc2ccc(C)cc2)cc1` . Output inhibition: 56

Input `COc1ccc(C)cc1NC(=O)c1ccc(OC(F)F)cc1` . Output inhibition: 66.2

Input `O=C(/C=N/O)Nc1cccnc1` . Output inhibition: 41.3

Input `CCCCOC(=O)Oc1ccc2c(=O)c(Oc3cc(C)cc(C)c3)coc2c1` . Output inhibition: 54.9

Input CC1CN(S(=O)(=O)c2ccc(C(=O)Nc3nc(-c4cc5ccccc5o4)cs3)cc2)CC(C)O1 (configuration not stated) . Output inhibition: 32.9

Input CC1(C)CC(=O)C2=C(C1)OC(N)=C([N+](=O)[O-])C2c1cccs1 (configuration not stated) . Output inhibition: 39.2

Input `COc1ccc(-c2cc(-c3cc(OC)ccc3O)[nH]n2)cc1` . Output inhibition: 57.5

Input `CCCCCCOc1ccc(-c2ccc(C#N)cn2)cc1` . Output inhibition: 37.6

Input `O=[N+]([O-])c1cc2oc3c(c2c(C=NCc2ccccc2)c1O)CCCC3` . Output inhibition: 42.5

Input `Cc1cc(C)c(S(=O)(=O)Nc2ccc(OCC(=O)O)cc2)c(C)c1` . Output inhibition: 29.1

Input `C=C1SC(Nc2c(C)cccc2C)=NC12CCCCC2` . Output inhibition: 47.3

Input `O=[N+]([O-])c1ccc(NC(=S)NCCc2ccc(F)cc2)cc1` . Output inhibition: 96.3

Input `CCCCCCOc1ccc(/C(C)=N/NC2=NCCN2)cc1` . Output inhibition: 80.3

###

- experimental-details: ASC/caspase-1 reporter retest in S. cerevisiae at one dose, specificity check for NALP1 project (AID 488857)
- measurement-context: S. cerevisiae ASC/Caspase-1, beta-galactosidase luminescence, 24 h; at 10 µM
Screen size: about 1,400 compounds; about 560 (40%) were called active.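 The calls were made as follows: active = mean inhibition over duplicate tests at 10 µM above 50%; inactive = the rest.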 So high a share suggests a set chosen from earlier hits. The list shows a part of the results.
Log the outcome using a class from active, inactive

compound	class-label
COc1cccc(NC(=O)Cn2cnc3sc(C)c(S(=O)(=O)N4CCCCC4)c3c2=O)c1	inactive

Could you please tell me the result logged for `Cc1cccc(Oc2nc(CN3CCOCC3)nc3sc4c(c23)CCCC4)c1` in this assay?
active

Could you please tell me the result logged for `O=C(Nc1nccs1)c1sc2ccccc2c1Cl` in this assay?
active

Could you please tell me the result logged for CCN(CC1COc2ccccc2O1)S(=O)(=O)c1ccc(C)cc1 (centres undefined) in this assay?
inactive

Could you please tell me the result logged for `CC(C)Oc1ccc2c(=O)c(-c3ccccc3)coc2c1` in this assay?
active

Could you please tell me the result logged for `CCn1c(COc2ccccc2C)nnc1SCC(=O)N1CCN(c2ccccc2)CC1` in this assay?
inactive

Could you please tell me the result logged for `COc1ccc(/C=N/OC(=O)Nc2ccccc2)cc1[N+](=O)[O-]` in this assay?
inactive

Could you please tell me the result logged for `COc1ccc(CNc2cccc(F)c2)cc1Br` in this assay?
active

Could you please tell me the result logged for `O=C(Nc1nc(-c2ccccn2)cs1)c1ccc(Cl)s1` in this assay?
inactive

Could you please tell me the result logged for `COc1ccc(-c2nc(CCNC(=O)c3cccs3)cs2)cc1` in this assay?
active

Could you please tell me the result logged for `O=C(Nc1nc2ccccc2s1)C1c2ccccc2Oc2ccccc21` in this assay?
inactive

Could you please tell me the result logged for `COc1ccccc1N1CCN(CCCCOc2cccc3ccccc23)CC1` in this assay?
active

Could you please tell me the result logged for `O=C1c2ccccc2C(=O)c2c1ncn2-c1ccccc1` in this assay?
inactive

Could you please tell me the result logged for `CNc1ccccc(-c2ccc3ccccc3n2)c1=O` in this assay?
inactive

###

- experimental-details: ASC/caspase-1 reporter retest in S. cerevisiae at one dose, specificity check for NALP1 project (AID 488857)
- measurement-context: S. cerevisiae ASC/Caspase-1, beta-galactosidase luminescence, 24 h; at 10 µM
In all, about 1,400 compounds went through this assay and about 560 (40%) were called active.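 How the source made its calls: active means mean inhibition over duplicate tests at 10 µM above 50%; inactive means the rest.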 So high a share suggests a set chosen from earlier hits. This is one part of the list.
Log the outcome using a class from T = active, F = inactive

As a guide, the following entries are already answered.
compound	class-label
Cc1cc(N/N=C/c2ccc(Cl)cc2)nc(NCc2ccccc2)n1	T
CCn1c(N2CCN(C(=O)C34CC5CC(CC(C5)C3)C4)CC2)nc2ccccc21	T
Cc1occc1C(=O)Nc1c(F)c(F)c(F)c(F)c1F	F
CCc1ccc(OCCCC(=O)Nc2cccc(C(=O)O)c2)cc1	F
O=C(c1ccccc1)c1c2c(cc3sc4ccccc4[n+]13)-c1cccc3cccc-2c13	F
O=C(NCc1ccc(F)cc1)c1cc(-c2ccco2)on1	T
O=C(NCc1cccs1)c1csc2ccccc12	T
Cc1cc(C)n(C(C[N+](=O)[O-])c2ccc(Cl)cc2)n1 (centres undefined)	T

Could you please tell me the result logged for `CC(C)CC(=O)c1c[nH]c(C(=O)NCc2cccs2)c1` in this assay?
F

Could you please tell me the result logged for CN(C)c1ccc(O)c2c1CC1CC3[C@@H](N(C)C)C(=O)C(C(N)=O)=C(O)[C@]3(O)C(=O)C1=C2O (some centres undefined) in this assay?
F

Could you please tell me the result logged for `COC(=O)c1c(N)c(C#N)c2n1CCCCC2` in this assay?
F

Could you please tell me the result logged for `CCN(c1ccccc1)S(=O)(=O)c1cc(NC(=O)Nc2ccccc2C#N)ccc1Cl` in this assay?
F

Could you please tell me the result logged for `Cc1noc2ncc(C(=O)c3cc(F)ccc3O)cc12` in this assay?
F

Could you please tell me the result logged for `C=CCn1c(CNC(=O)c2cccs2)nnc1SCC(=O)Nc1ccc(C(=O)O)cc1` in this assay?
F

Could you please tell me the result logged for CC1CC1C(=O)Nc1nc(-c2ccccc2)cs1 (centres undefined) in this assay?
T

Could you please tell me the result logged for O=C(NCc1ccco1)c1cnn2c1NC(c1ccc(Br)cc1)CC2C(F)(F)F (centres undefined) in this assay?
T

Could you please tell me the result logged for `O=C1C=CC(=O)N1CCCCCCN1C(=O)C=CC1=O` in this assay?
T

Could you please tell me the result logged for `COC(=O)N/N=C(\C)c1ccc2ccccc2c1OC(F)F` in this assay?
T

Could you please tell me the result logged for CCOCC(O)CNC(=O)c1ccc(OC2CCN(C(=O)c3cccnc3)CC2)cc1 (centres undefined) in this assay?
F

Could you please tell me the result logged for CCC(C)c1ccc(OCCn2ccnc2)cc1 (centres undefined) in this assay?
T

Could you please tell me the result logged for `CCCCCCCCCCCCCCCC[n+]1ccc(/C=N/O)cc1` in this assay?
T

Could you please tell me the result logged for `CCOC(=O)C1=C(O)c2ccccc2C(=O)/C1=C\c1ccc(C)cc1` in this assay?
F

Could you please tell me the result logged for `O=C(OCCN1CCCCC1)c1cc2ccccc2o1` in this assay?
F

Could you please tell me the result logged for `CCn1c(=O)cc(SCC(=O)N2CCN(C3CCCCC3)CC2)c2ccccc21` in this assay?
F

Could you please tell me the result logged for `N#C/C(=C/c1cccs1)c1nc2ccccc2[nH]1` in this assay?
T

Could you please tell me the result logged for `O=C(Nc1cccc(O)c1)c1cc(-c2ccco2)on1` in this assay?
T

Could you please tell me the result logged for `CNc1nc(SCc2ccc(C)cc2)nc2c1CCCC2` in this assay?
T

Could you please tell me the result logged for `Clc1ccc(OCCOCCN2CCc3ccccc3C2)c(Cl)c1` in this assay?
T

Could you please tell me the result logged for `N#C/C(=C\c1ccc([N+](=O)[O-])o1)c1nc2ccccc2[nH]1` in this assay?
F
